Target: T1, RBFOX1 RRM RbFoxmut (Fox-RRM*) (Homo sapiens, UniProt Q9NWB1 109-208, R118D;E147R;N151S;E152T)
T1 sequence: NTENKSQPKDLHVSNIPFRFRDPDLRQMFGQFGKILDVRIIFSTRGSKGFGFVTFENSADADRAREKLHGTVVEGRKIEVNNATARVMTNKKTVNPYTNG
Assay: EMSA; HiTS-Eq, 1 nM pool, 10 min; buffer printed only for the single-RNA assays: 10 mM Tris pH 7.5, 150 mM NaCl, 3.4 mM EDTA, 0.001% NP-40, 30 C
Settings: tags: His6 N-terminal (pET28a); label: 5' 32P
The full ranking holds about 16,000 sequences; the median of “ka relative to ugcaugu” is about 0.096, and the highest 2% start at about 0.35. What follows is part of a selection rich in the highest values, with near analogues and random picks from the rest.
Please provide measured binding signal for the entries that follow.

Given the binder AAUUCGA (DNA:RNA) RNA: GGGAGACCGGAAUUCAGAUUGUCCAAUUCGAUUAAAUCCCGUCGUAGCCACCA DNA 1: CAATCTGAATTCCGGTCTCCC DNA 2: TGGTGGCTACGACGGGATT , write its reported binding signal.
0.0737 KA relative to UGCAUGU

Given the binder GCACUUC (DNA:RNA) RNA: GGGAGACCGGAAUUCAGAUUGUCCGCACUUCUUAAAUCCCGUCGUAGCCACCA DNA 1: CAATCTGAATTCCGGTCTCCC DNA 2: TGGTGGCTACGACGGGATT , write its reported binding signal.
0.0473 KA relative to UGCAUGU

Values from paper PMC9911399
